Biological target: (UniProt H5SPS2)
Sequence (H5SPS2 1-220): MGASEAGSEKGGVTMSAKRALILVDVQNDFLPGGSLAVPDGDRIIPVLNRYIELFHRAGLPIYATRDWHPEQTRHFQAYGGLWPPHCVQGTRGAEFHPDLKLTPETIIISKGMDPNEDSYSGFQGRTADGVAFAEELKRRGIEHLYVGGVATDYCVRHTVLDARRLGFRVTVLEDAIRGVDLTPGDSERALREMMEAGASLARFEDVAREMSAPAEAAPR
outcome.measure: Ki (µM)
Output spec: scalar in µM, unitless text.

**Query** Report Ki for "O=Cc1cccnc1" please.
**Result** 0.18
